The values you see were collected from PubChem BioAssay (NCI).

Entries and their growth values follow.
# Tested on: COLO 205 colon
# Procedure summary: NCI-60 one-dose screen, 48 h (100 = growth as untreated, 0 = no growth, -100 = all killed)
# Cond: 10 µM unless noted
This is part of a sample that, as a whole, favours compounds with a hit. Of some 83,000 tested, about 20% had one in any assay.
Your answer should be a plain number; it is taken to be in %.

• COc1cc(NC(=O)CCSc2nc3ccccc3c(=O)n2Cc2ccccc2)cc(OC)c1OC = 118
• O=C1c2ccccc2C(=O)c2c1ccc1[nH]c(CCl)nc21 = 29.1
• Cc1nn(-c2nc3ccccc3[nH]2)c2c1C(c1ccc(OCC(N)=O)cc1)CC(=O)N2 (stereo not given) = 117

Short answer for O=C(CCc1nnc2sc(-c3ccc(Cl)cc3Cl)nn12)c1nc2ncccc2[nH]1 : growth was -32.5

Short answer for COC(=O)/C(=C\c1c(C)[nH]c2ccccc12)S(=O)(=O)c1ccccc1 : growth was 31.8

Short answer for O=C1c2cc(Br)ccc2Oc2cc([N+](=O)[O-])ccc2N1c1ccc(I)cc1F : growth was 123

Short answer for COc1cc(C=C2C(=O)N(C)C(=O)N(C)C2=O)cc(CN2CCCCC2)c1O : growth was 111

Short answer for COc1ccc2oc(=O)cc(Cn3cc(Cn4cnc5c4c(=O)n(C)c(=O)n5C)nn3)c2c1 : growth was 110

Short answer for NC1(N2SC(S)=C3CCCC=C32)CCCCC1 : growth was 107

Short answer for COc1ccc(-c2nsc3c2NC(=O)CC3c2ccc3c(c2)OCCO3)cc1 (stereo not given) : growth was -70.4

----------
# Tested on: SNB-75 CNS
# Procedure summary: NCI-60 one-dose screen, 48 h (100 = growth as untreated, 0 = no growth, -100 = all killed)
# Cond: 10 µM unless noted
This is part of a sample that, as a whole, favours compounds with a hit. Of some 83,000 tested, about 20% had one in any assay.
Entries and their growth values follow.
Your answer should be a plain number; it is taken to be in %.

As a guide, the following entries are already answered.
• O=C(CSc1nc2ccccc2c(=O)n1-c1ccccc1)Nc1ccc(C(=O)/C=C/c2ccc(Cl)cc2)cc1 = 114
• O=C(NCCCN1CCC(N2CCCCC2)CC1)C1=Cc2cc(Br)ccc2OC1 = 44.7
• O=C(Nc1ccc(N2CCNCC2)cc1)c1[nH]ncc1Nc1cc(Oc2ccccc2)ncn1 = 49.1
• COc1ccc(/C(C#N)=C/c2nc3c(N4CCOCC4)nc(Cl)nc3n2C)cc1OC = -7.9
• Fc1cccc(COc2ccc(Nc3ncnc4onc(-c5ccccc5)c34)cc2)c1 = -34.9
• COc1cc(/C=C/C(=O)c2ccc(Cl)cc2)cc(CN2CCCCC2)c1O = 70.9

Short answer for COc1cccc2c(=O)c3c(sc12)c(NCCCNCCO)nc1ccccc13 : growth was 17.2

Short answer for CNCCNc1nc2ccccc2c2c(=O)c3cccc(C)c3sc12 : growth was 38.4

----------
Entries and their growth values follow.
# Tested on: LOX IMVI melanoma
# Procedure summary: NCI-60 one-dose screen, 48 h (100 = growth as untreated, 0 = no growth, -100 = all killed)
# Cond: 10 µM unless noted
About 83,000 compounds went through this panel and 20% of them were active in at least one assay; those are over-represented in the sample as a whole.
Your answer should be a plain number; it is taken to be in %.

As a guide, the following entries are already answered.
• O=C(Nc1ccc(Cl)cc1F)c1cc(I)ccc1O = 19
• COC(=O)/C(CCC=C(C)C)=C1\[C@@H](OC(C)=O)C[C@@]2(C)[C@H]1C[C@@H](O)[C@H]1[C@@]3(C)CC[C@H](NCCO)[C@@H](C)[C@@H]3CC[C@@]12C = 94.2
• N[C@@H](CC/[N+]([O-])=N/O)C(=O)O = 104
• C#CCn1cc(C=C2C(=O)NC(=O)NC2=O)c2cc(Cl)ccc21 = 73.2
• CC1=C(CC(=O)c2cccc([N+](=O)[O-])c2)C(=O)c2ccccc2C1=O = -51.9
• NC1C(N)C(N)C1N (configuration not stated) = 95.1
• COC(=O)C1(C)COP(=O)(Nc2ccc(OC)cc2)OC1 (configuration not stated) = 96.3
• O=C(NN1C(=O)CSC1c1ccc(Cl)cc1)c1[nH]c2ccc(F)cc2c1-c1ccccc1 (configuration not stated) = 60.9

Short answer for COc1ccccc1N1C(=N)S/C(=C\c2ccc(OCc3ccccc3F)cc2)C1=O : growth was 80.1

Short answer for Nc1ccn(C2O[C@H](CO)[C@@H](O)[C@H]2O)c(=O)n1 (some centres not stated) : growth was 75.5

Short answer for CC1=C(C(=O)OCC2CCN(C(=O)OC(C)(C)C)CC2)[C@@H](c2cccc(C#N)c2)C2=C(CC(C)(C)CC2=O)N1 : growth was 9.5

Short answer for O=C(Nc1ccc(N2CCNCC2)cc1)c1[nH]ncc1Nc1cc(C2CC2)ncn1 : growth was 36.1

Short answer for COc1ccccc1C1=C(Br)C(=O)c2nc(C)ccc2C1=O : growth was 97.1

Short answer for COc1c(B(O)O)cccc1-c1nc2ccc3n[nH]c(F)c3c2c2c1CCCC2 : growth was 54.7

Short answer for O=C(N/N=C/c1ccccc1O)C(=O)Nc1ccc(F)cc1 : growth was 27.2

Short answer for O=C(c1nc2ccccc2[nH]1)C1C(c2ccc(F)cc2)C2CC3CCCCC3N2[C@@]12C(=O)Nc1ccc(Cl)cc12 (some centres not stated) : growth was 46

Short answer for Cc1c(-c2csc(-n3nc(C(F)(F)F)cc3C(F)(F)F)n2)no[n+]1[O-] : growth was 99

Short answer for O=C1OC(c2ccccc2)(c2ccccc2)c2ccsc21 : growth was 103

----------
# Tested on: K-562 leukemia
# Procedure summary: NCI-60 one-dose screen, 48 h (100 = growth as untreated, 0 = no growth, -100 = all killed)
# Cond: 10 µM unless noted
About 83,000 compounds went through this panel and 20% of them were active in at least one assay; those are over-represented in the sample as a whole.
Label Yes when growth is strictly below 40%; at or above that, label No.

Consider the following illustrative entries.
* O=c1oc2ccc(I)cc2c(=O)n1-c1ccc(F)cc1F | Yes
* Nc1nc(-c2ccccc2Br)nn1-c1nc2ccccc2s1 | No
* CSc1nc2c(c(=O)[nH]1)N=C1c3ccccc3C(=O)C1C(c1ccc(F)cc1)N2 (stereo not drawn) | No
* COC(=O)c1cc2c(n1Cc1ccccc1)-c1oncc1CCC2 | Yes
* COc1ccc(C(=O)Nc2ccc3nc(N4CCCCC4)cc(C)c3c2)cc1OC | Yes

Is growth strictly under 40% for the entry CN1CCN(Cc2ccc(C(=O)Nc3cncc(C#Cc4cnc5cccnn45)c3)cc2C(F)(F)F)CC1 ?
Yes

Is growth strictly under 40% for the entry COc1ccc(CCN2C(=O)CCSC2=S)cc1 ?
Yes

Is growth strictly under 40% for the entry COc1cc(NC(=O)CCSc2nc3ccccc3c(=O)n2CCc2ccccn2)cc(OC)c1OC ?
No

Is growth strictly under 40% for the entry COc1nccc2cc3c(=O)n4c(cc5ccccc54)c(=O)n3c12 ?
No

----------
Entries and their growth values follow.
# System: KM12 colon
# Procedure summary: NCI-60 one-dose screen, 48 h (100 = growth as untreated, 0 = no growth, -100 = all killed)
# Cond: 10 µM unless noted
Compounds without any hit were thinned out: in the full panel of roughly 83,000, 20% have a hit. Active and inactive are the calls of the source. The calls were made as follows: active = growth percent below 10; inactive = the rest.

As a guide, the following entries are already answered.
* O=C1c2cc(I)ccc2Oc2cc([N+](=O)[O-])ccc2N1c1ccc(Cl)cc1F | 81.2% (inactive)
* Nc1ncnc(N)c1NC(=O)c1ccc(OCc2ccccc2)cc1 | 104% (inactive)
* Cc1ccc(Cc2cnc(NC(=O)CN3C(=O)/C(=C\c4ccccc4)SC3=S)s2)cc1 | 103% (inactive)

Short answer for COC(=O)C1(C)COP(=O)(Nc2ccc(OC)cc2)OC1 (stereo not drawn) : growth was 103% (inactive)

Short answer for O=c1oc2ccc(F)cc2c(=O)n1-c1ccc(F)cc1F : growth was 12.6% (inactive)

----------
# Tested on: DU-145 prostate
# Procedure summary: NCI-60 one-dose screen, 48 h (100 = growth as untreated, 0 = no growth, -100 = all killed)
# Cond: 10 µM unless noted
This is part of a sample that, as a whole, favours compounds with a hit. Of some 83,000 tested, about 20% had one in any assay. Activity calls are given as the source filed them. How the source made its calls: active means growth percent below 10; inactive means the rest.
Entries and their growth values follow.

As a guide, the following entries are already answered.
• c1ccc2cc3c(Nc4ccc(N5CCOCC5)cc4)ccnc3cc2c1 = 97.2% (inactive)
• COc1ccc(C(O)(CCC(C)C)C(CN2CCOCC2)c2ccc(Cl)cc2)cc1 (configuration not stated) = 73.8% (inactive)
• O=Cc1cc2ccccc2nc1Nc1nccs1 = 80.3% (inactive)
• CC(=S)NC(=O)C(=O)/C=C1/NC(=O)C(=O)S1 = 111% (inactive)
• COc1ccccc1C1=C(Br)C(=O)c2nc(C)ccc2C1=O = 109% (inactive)

Short answer for O=c1oc2ccc(Cl)cc2c(=O)n1-c1cc(C(F)(F)F)cc(C(F)(F)F)c1 : growth was 14.4% (inactive)

Short answer for NCCCNc1nc2ccccc2c2c(=O)c3cc(F)ccc3sc12 : growth was -22.8% (active)

Short answer for COc1cc(NC(=O)CCSc2nc3ccccc3c(=O)n2CCc2ccccn2)cc(OC)c1OC : growth was 103% (inactive)

Short answer for COc1ccc(N2C(=O)CC(c3cc(OC)c(OC)c(OC)c3)C3C2=NC(=O)N3C)cc1 (configuration not stated) : growth was 106% (inactive)

Short answer for COc1ccc(/C=C2\CCC/C(=C\c3ccc(OC)c(OC)c3)C2=O)cc1OC : growth was -33.9% (active)

Short answer for COc1cc(/C=C2\Oc3cc(OCCCN4CCCC4)ccc3C2=O)cc(OC)c1 : growth was 33.6% (inactive)
